B1: tRNA (parent)
chain: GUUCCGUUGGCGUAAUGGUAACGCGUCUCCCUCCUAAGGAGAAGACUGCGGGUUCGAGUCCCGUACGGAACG

Variants of: B1
Test Details: yeast fitness relative to wild type (ratio to wild type); higher = fitter; tRNA-Arg(CCU), competitive growth, 37 C, YPD
Variants at the floor of the assay were thinned out.
Readings of yeast fitness for the listed variants
Readout Label: yeast fitness

INSERT INTO measurements (variant_id, readout_label, readout_qualifier, endpoint_value) VALUES
  ('C33G U47A G67C A69U', 'yeast fitness', '≤', 0.5),
  ('A15G C24A U64C', 'yeast fitness', '≤', 0.5),
  ('C24U A42U C61U', 'yeast fitness', '=', 0.641),
  ('C11U U28G C30A', 'yeast fitness', '≤', 0.5),
  ('G17C C29U', 'yeast fitness', '=', 0.545),
  ('G17C G48A', 'yeast fitness', '=', 0.685),
  ('G12C A43U A70C', 'yeast fitness', '=', 0.521),
  ('G50U C66U', 'yeast fitness', '=', 0.96),
  ('C30A A36U G39A A45G G63U', 'yeast fitness', '≤', 0.5),
  ('U8C A36U G50C', 'yeast fitness', '≤', 0.5),
  ('U3G C29A U53A', 'yeast fitness', '≤', 0.5),
  ('C4G A21U U54G', 'yeast fitness', '=', 0.607),
  ('C5G A15G C24G U32A C34G G68A A69U A70U', 'yeast fitness', '=', 0.516),
  ('A21C G39A A65C', 'yeast fitness', '≤', 0.5),
  ('U8A A14G', 'yeast fitness', '=', 0.632),
  ('U2G C27A G67U', 'yeast fitness', '≤', 0.5),
  ('U35C A37U A42G G51A', 'yeast fitness', '≤', 0.5),
  ('U3A C5G A21U C22U G41A A43C G51C C66U G67U', 'yeast fitness', '≤', 0.5),
  ('A14G C29U G39A C49U G56C', 'yeast fitness', '≤', 0.5),
  ('C22U A69C', 'yeast fitness', '=', 0.876),
  ('C27G A40U', 'yeast fitness', '=', 0.682),
  ('C11A C29U A57C', 'yeast fitness', '=', 0.732);

The measured values listed here are drawn from the RNAGym collection of RNA variant scans (doi:10.1126/science.aae0568).
